Below, each entry is listed with its recorded MIC, B. subtilis.
- Tested on: Bacillus subtilis (BNCC109047)
- cond: BNCC109047, 24 h
Where a SMILES comes first, the peptide text is derived from it. Bridges are numbered along the chain shown (N, C = ends). [ ]: non-standard residue; d: D form.

compound	assay-target	inequality-operator	MIC, B. subtilis (µM)
CC(C)C[C@@H]1NC(=O)[C@H](CCCCN)NC(=O)[C@H](CC(C)C)NC(=O)[C@H](CCCCN)NC(=O)[C@@H]2CSSC[C@H](NC(=O)[C@@H](N)CC(C)C)C(=O)N[C@@H](CSSC[C@@H](C(N)=O)NC(=O)[C@H](CCCCN)NC1=O)C(=O)N[C@@H](CC(C)C)C(=O)N[C@@H](CCCCN)C(=O)N2 [Pep 7] (H-LCCLKCKLKLKC-NH2; disulfide 2-6, 3-12)	Bacillus subtilis (BNCC109047)	=	64
CC(C)C[C@@H]1NC(=O)[C@@H]2CSSC[C@@H](C(N)=O)NC(=O)[C@@H](CCCCN)NC(=O)[C@H](Cc3ccc(O)cc3)NC(=O)[C@@H](CCCCN)NC(=O)[C@H](CSSC[C@H](NC(=O)CN)C(=O)N2)NC(=O)[C@@H](CCCCN)NC(=O)[C@H](CC(C)C)NC(=O)[C@@H](CCCCN)NC1=O [Pep 1] (H-GCCL[dK]L[dK]C[dK]Y[dK]C-NH2; disulfide 2-8, 3-12)	Bacillus subtilis (BNCC109047)	>	64
CC(C)C[C@@H]1NC(=O)[C@@H]2CSSC[C@@H](C(N)=O)NC(=O)[C@@H](CCCNC(=N)N)NC(=O)[C@H](CC(C)C)NC(=O)[C@@H](CCCCN)NC(=O)[C@H](CC(C)C)NC(=O)[C@@H](CCCNC(=N)N)NC(=O)[C@H](CSSC[C@H](NC(=O)[C@@H](N)CC(C)C)C(=O)N2)NC(=O)[C@@H](CCCNC(=N)N)NC1=O [Pep 8] (H-LCCL[dR]C[dR]L[dK]L[dR]C-NH2; disulfide 2-6, 3-12)	Bacillus subtilis (BNCC109047)	=	16

---

Below, each entry is listed with its recorded remaining at 4 h.
- procedure-text: in vitro
- cond: serum
Where a SMILES comes first, the peptide text is derived from it. Bridges are numbered along the chain shown (N, C = ends). [ ]: non-standard residue; d: D form.

compound	measurement-units	remaining at 4 h
CC(C)C[C@@H]1NC(=O)[C@@H]2CSSC[C@@H](C(N)=O)NC(=O)[C@@H](CCCNC(=N)N)NC(=O)[C@H](CC(C)C)NC(=O)[C@@H](CCCCN)NC(=O)[C@H](CC(C)C)NC(=O)[C@@H](CCCNC(=N)N)NC(=O)[C@H](CSSC[C@H](NC(=O)[C@@H](N)CC(C)C)C(=O)N2)NC(=O)[C@@H](CCCNC(=N)N)NC1=O [Pep 8] (H-LCCL[dR]C[dR]L[dK]L[dR]C-NH2; disulfide 2-6, 3-12)	%	20
CC(C)C[C@@H]1NC(=O)[C@@H](CCCCN)NC(=O)[C@@H]2CSSC[C@H](NC(=O)[C@H](CC(C)C)NC(=O)[C@@H](CCCCN)NC(=O)[C@@H](CCCCN)NC(=O)[C@@H](N)CC(C)C)C(=O)N[C@@H](CSSC[C@@H](C(N)=O)NC(=O)[C@@H](CCCCN)NC1=O)C(=O)N[C@H](CCCCN)C(=O)N2 [Pep 6] (H-L[dK][dK]LCC[dK]C[dK]L[dK]C-NH2; disulfide 5-8, 6-12)	%	20
CC(C)C[C@@H]1NC(=O)[C@@H]2CSSC[C@@H](C(N)=O)NC(=O)[C@@H](CCCCN)NC(=O)[C@H](CC(C)C)NC(=O)[C@@H](CCCCN)NC(=O)[C@H](CC(C)C)NC(=O)[C@@H](CCCCN)NC(=O)[C@H](CSSC[C@H](NC(=O)[C@@H](N)CC(C)C)C(=O)N2)NC(=O)[C@@H](CCCCN)NC1=O [Pep 5] (H-LCCL[dK]C[dK]L[dK]L[dK]C-NH2; disulfide 2-6, 3-12)	%	20

---

Below, each entry is listed with its recorded MIC, C. parapsilosis.
- System: Candida parapsilosis (BNCC336015)
- cond: BNCC336015, 24 h
Where a SMILES comes first, the peptide text is derived from it. Bridges are numbered along the chain shown (N, C = ends). [ ]: non-standard residue; d: D form.

molecule	measurement-units	inequality-operator	MIC, C. parapsilosis
CC(C)C[C@@H]1NC(=O)[C@@H]2CSSC[C@@H](C(N)=O)NC(=O)[C@@H](CCCCN)NC(=O)[C@H](CC(C)C)NC(=O)[C@@H](CCCCN)NC(=O)[C@H](CSSC[C@H](NC(=O)[C@@H](N)CC(C)C)C(=O)N2)NC(=O)[C@@H](CCCCN)NC(=O)[C@H](CC(C)C)NC(=O)[C@@H](CCCCN)NC1=O [Pep 3] (H-LCCL[dK]L[dK]C[dK]L[dK]C-NH2; disulfide 2-8, 3-12)	µM	>	64
CC(C)C[C@@H]1NC(=O)[C@H](CCCCN)NC(=O)[C@@H]2CSSC[C@H](NC(=O)[C@H](CC(C)C)NC(=O)[C@H](CCCCN)NC(=O)[C@H](CCCCN)NC(=O)[C@@H](N)CC(C)C)C(=O)N[C@@H](CSSC[C@@H](C(N)=O)NC(=O)[C@H](CCCCN)NC1=O)C(=O)N[C@@H](CCCCN)C(=O)N2 [Pep 9] (H-LKKLCCKCKLKC-NH2; disulfide 5-8, 6-12)	µM	=	16
CC(C)C[C@@H]1NC(=O)[C@@H](CCCCN)NC(=O)[C@@H]2CSSC[C@H](NC(=O)[C@H](CC(C)C)NC(=O)[C@@H](CCCCN)NC(=O)[C@@H](CCCCN)NC(=O)[C@@H](N)CC(C)C)C(=O)N[C@@H](CSSC[C@@H](C(N)=O)NC(=O)[C@@H](CCCCN)NC1=O)C(=O)N[C@H](CCCCN)C(=O)N2 [Pep 6] (H-L[dK][dK]LCC[dK]C[dK]L[dK]C-NH2; disulfide 5-8, 6-12)	µM	=	32
CC(C)C[C@@H]1NC(=O)[C@@H]2CSSC[C@@H](C(N)=O)NC(=O)[C@@H](CCCCN)NC(=O)[C@H](Cc3ccc(O)cc3)NC(=O)[C@@H](CCCCN)NC(=O)[C@H](CSSC[C@H](NC(=O)CN)C(=O)N2)NC(=O)[C@@H](CCCCN)NC(=O)[C@H](CC(C)C)NC(=O)[C@@H](CCCCN)NC1=O [Pep 1] (H-GCCL[dK]L[dK]C[dK]Y[dK]C-NH2; disulfide 2-8, 3-12)	µM	>	64
CC(C)C[C@@H]1NC(=O)[C@@H]2CSSC[C@@H](C(N)=O)NC(=O)[C@@H](CCCCN)NC(=O)[C@H](CC(C)C)NC(=O)[C@@H](CCCCN)NC(=O)[C@H](CC(C)C)NC(=O)[C@@H](CCCCN)NC(=O)[C@H](CSSC[C@H](NC(=O)[C@@H](N)CC(C)C)C(=O)N2)NC(=O)[C@@H](CCCCN)NC1=O [Pep 5] (H-LCCL[dK]C[dK]L[dK]L[dK]C-NH2; disulfide 2-6, 3-12)	µM	=	128
CC(C)C[C@@H]1NC(=O)[C@@H]2CSSC[C@@H](C(N)=O)NC(=O)[C@@H](CCCNC(=N)N)NC(=O)[C@H](CC(C)C)NC(=O)[C@@H](CCCCN)NC(=O)[C@H](CC(C)C)NC(=O)[C@@H](CCCNC(=N)N)NC(=O)[C@H](CSSC[C@H](NC(=O)[C@@H](N)CC(C)C)C(=O)N2)NC(=O)[C@@H](CCCNC(=N)N)NC1=O [Pep 8] (H-LCCL[dR]C[dR]L[dK]L[dR]C-NH2; disulfide 2-6, 3-12)	µM	=	8

---

Below, each entry is listed with its recorded MIC, B. subtilis.
- Test system: Bacillus subtilis (BNCC109047)
- cond: BNCC109047, 24 h
Where a SMILES comes first, the peptide text is derived from it. Bridges are numbered along the chain shown (N, C = ends). [ ]: non-standard residue; d: D form.

molecule	assay-target	MIC, B. subtilis
CC(C)C[C@@H]1NC(=O)[C@@H]2CSSC[C@@H](C(N)=O)NC(=O)[C@@H](CCCCN)NC(=O)[C@H](CC(C)C)NC(=O)[C@@H](CCCCN)NC(=O)[C@H](CSSC[C@H](NC(=O)[C@@H](N)CC(C)C)C(=O)N2)NC(=O)[C@@H](CCCCN)NC(=O)[C@H](CC(C)C)NC(=O)[C@@H](CCCCN)NC1=O [Pep 3] (H-LCCL[dK]L[dK]C[dK]L[dK]C-NH2; disulfide 2-8, 3-12)	Bacillus subtilis (BNCC109047)	>64 µM
CC(C)C[C@@H]1NC(=O)[C@@H](CCCCN)NC(=O)[C@@H]2CSSC[C@H](NC(=O)[C@H](CC(C)C)NC(=O)[C@@H](CCCCN)NC(=O)[C@@H](CCCCN)NC(=O)[C@@H](N)CC(C)C)C(=O)N[C@@H](CSSC[C@@H](C(N)=O)NC(=O)[C@@H](CCCCN)NC1=O)C(=O)N[C@H](CCCCN)C(=O)N2 [Pep 6] (H-L[dK][dK]LCC[dK]C[dK]L[dK]C-NH2; disulfide 5-8, 6-12)	Bacillus subtilis (BNCC109047)	64 µM
CC(C)C[C@@H]1NC(=O)[C@@H]2CSSC[C@@H](C(N)=O)NC(=O)[C@@H](CCCCN)NC(=O)[C@H](CC(C)C)NC(=O)[C@@H](CCCCN)NC(=O)[C@H](CSSC[C@H](NC(=O)[C@@H](N)CC(C)C)C(=O)N2)NC(=O)[C@H](C)NC(=O)[C@@H](CCCCN)NC(=O)[C@H](CC(C)C)NC(=O)[C@@H](CCCCN)NC1=O [Pep 4] (H-LCCL[dK]L[dK]AC[dK]L[dK]C-NH2; disulfide 2-9, 3-13)	Bacillus subtilis (BNCC109047)	>64 µM
